Tested on: KM12
Assay: NCI tumour cell line growth inhibition, 48 h
The source made the active and inactive calls. Cut-off read from the data, not from the text of the source: active = GI50 up to about 1.1 µM and inactive = higher.
Kindly supply the reported GI50 values for the records listed here.

Look up and report measured GI50 for this entry: O=C1Nc2ccccc2/C1=N/N1C(=O)/C(=C/c2ccccc2S)N=C1c1ccccc1
66.4 µM (inactive)

Look up and report measured GI50 for this entry: CC(=O)O[C@H]1[C@@H](OC(C)=O)C(C)(C)/C=C/[C@H](C)C(=O)[C@@]2(OC(C)=O)C[C@@](C)(OC(C)=O)[C@H](OC(C)=O)[C@@H]2[C@H]2OC(=O)CC[C@@]2(OC(=O)c2ccccc2)[C@@H]1OCC(C)C
39.1 µM (inactive)

Look up and report measured GI50 for this entry: O=C1NC(=O)C2(CCCCCC2)N1
> 100 µM (inactive)

Look up and report measured GI50 for this entry: CC1N(C)C(=O)OC12CCN(CCCC(=O)c1ccc(F)cc1)CC2 (centres undefined)
> 100 µM (inactive)
